- Tested Target: GST-Bcl-2 (Homo sapiens (Human), UniProt P10415)
- Sequence (P10415 whole entry): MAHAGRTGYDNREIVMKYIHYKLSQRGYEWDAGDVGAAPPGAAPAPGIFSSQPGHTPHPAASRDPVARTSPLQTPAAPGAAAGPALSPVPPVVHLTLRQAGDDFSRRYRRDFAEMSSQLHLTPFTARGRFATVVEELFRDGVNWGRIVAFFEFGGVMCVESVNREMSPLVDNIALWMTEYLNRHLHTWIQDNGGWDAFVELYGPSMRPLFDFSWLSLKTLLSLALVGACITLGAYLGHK
- Procedure Text: Time Resolved-Fluorescence Resonance Energy Transfer (TR-FRET) Bcl-2 binding assay
- Conditions Used: GST-Bcl-2 1 nM, F-Bak peptide probe 100 nM, Tb-anti-GST antibody 1 nM; Ki by Wang's equation
- Experimental: Determination of the utility of compounds having Formula (I) as binders to and inhibitors of anti-apoptotic Bcl-2 proteins was performed using the Time Resolved-Fluorescence Resonance Energy Transfer (TR-FRET) Assay. Tb-anti-GST antibody was purchased from Invitrogen (Catalog No. PV4216). Representative compounds were serially diluted in dimethyl sulfoxide (DMSO) starting at 50 μM (2× starting concentration; 10% DMSO) and 10 μL were transferred into a 384-well plate. […]
Provide the recorded Ki for the entries that follow.
// units = nM; emit number, no label

CC1(C)CCC(CN2CCN(c3ccc(C(=O)NS(=O)(=O)c4ccc(NC5CCN(CCCc6ccccc6)CC5)c([N+](=O)[O-])c4)c(Oc4cccc(Cl)c4)c3)CC2)=C(c2ccc(Cl)cc2)C1 tested on GST-Bcl-2 (Homo sapiens (Human), UniProt P10415) gave Ki: 0.549

Reading of Ki for CC1(C)CCC(CN2CCN(c3ccc(C(=O)NS(=O)(=O)c4ccc(NC5CCN(CCN6CCOCC6)CC5)c([N+](=O)[O-])c4)c(Oc4cccc(Cl)c4)c3)CC2)=C(c2ccc(Cl)cc2)C1 with GST-Bcl-2 (Homo sapiens (Human), UniProt P10415): 0.077
